- measured_target: histamine H4 receptor (Homo sapiens, UniProt Q9H3N8)
- test_protocol: In vitro histamine H4 potency in FLIPR (Ca2+ flux, HEK-293 cells coexpressing Gαqi5)
- Assay type: cell-based
- Parameters: expressed in transfected cells
- test_parameters: Kb for antagonists and inverse agonists, EC50 for partial agonists
- Description: There are many methods available to show the effectiveness of compounds as histamine H4 receptor ligands. Histamine H4 receptors from mammalian species have been cloned. […] In the case of partial agonist or agonist ligands, addition of compound to the cells leads to the increase in intracellular Ca^+2 which is detected by FLIPR (Fluorescence Imaging Plate Reader; Molecular Devices, Sunnyvale, Calif.) technology. […]
endpoint: Potency (nM)

CN[C@@H]1CCN(c2nc(N)nc3c2CCCc2cc4c(cc2-3)CCCC4)C1 [Example 97]: 29
Nc1nc2c(c(N3CC4CCCNC4C3)n1)CCOc1cc(I)ccc1-2 (centres unmarked) [Example 102]: 45
CNC(=O)Nc1nc2c(c(N3CCNCC3)n1)CCCc1ccccc1-2 [Example 90]: 25119
N#Cc1ccc2c(c1)OCCc1c-2nc(N)nc1N1CC2CCCNC2C1 (centres unmarked) [Example 104]: 141
Nc1nc2c(c(N3CCNCC3)n1)CCOc1ccccc1-2 [Example 30]: 166

[1] CNC1CN(c2nc(N)nc3c2CCCc2ccc(F)cc2-3)C1 [Example 12]
[2] CN[C@@H]1CCN(c2nc(N)nc3c2COc2ccccc2-3)C1 [Example 9]
Lookup: Of 1 and 2 , which carries the smaller reported Potency figure? // output: label of the selected item
Found: 1

* * *

- measured_target: histamine H4 receptor (Homo sapiens, UniProt Q9H3N8)
- test_protocol: In vitro histamine H4 potency in FLIPR (Ca2+ flux, HEK-293 cells coexpressing Gαqi5)
- Assay type: cell-based
- Design: expressed in transfected cells
- test_parameters: Kb for antagonists and inverse agonists, EC50 for partial agonists
endpoint: Potency (nM)

Nc1nc2c(c(N3CCC4(CCCCN4)CC3)n1)CCCc1ccccc1-2: 4898
CNC1CN(c2nc(N)nc3c2CCCCCc2ccccc2-3)C1: 115
CN[C@@H]1CCN(c2nc(N)nc3c2CCCc2ccc(F)cc2-3)C1: 7.8

[A] CNC1CN(c2nc(N)nc3c2CCCc2ccccc2-3)C1
[B] Nc1nc2c(c(N3C[C@@H]4C[C@H]3CN4)n1)CCCCCc1ccccc1-2
[C] Nc1nc2c(c(N3CC4CCCNC4C3)n1)CCCc1ccc(F)cc1-2 (stereo not shown)
[D] Nc1nc2c(c(N3CC4(CCCNC4)C3)n1)CCCc1ccccc1-2
Lookup: Ranking field: Potency; order: falling. Returns: the labels arranged in the requested order.
Found: B, D, C, A

Each recorded value in this set is attributed to patent US8735411B2.
